Ki reference
biological target: cloned human dopamine D3 receptors (Homo sapiens); construct: expressed in transfected cells; membrane homogenate; assay: [N-Methyl-3H]Spiroperidol binding to cloned human dopamine D3 receptors (Protocol 1); details: read-out: D3K1
Sequence (P35462 whole entry): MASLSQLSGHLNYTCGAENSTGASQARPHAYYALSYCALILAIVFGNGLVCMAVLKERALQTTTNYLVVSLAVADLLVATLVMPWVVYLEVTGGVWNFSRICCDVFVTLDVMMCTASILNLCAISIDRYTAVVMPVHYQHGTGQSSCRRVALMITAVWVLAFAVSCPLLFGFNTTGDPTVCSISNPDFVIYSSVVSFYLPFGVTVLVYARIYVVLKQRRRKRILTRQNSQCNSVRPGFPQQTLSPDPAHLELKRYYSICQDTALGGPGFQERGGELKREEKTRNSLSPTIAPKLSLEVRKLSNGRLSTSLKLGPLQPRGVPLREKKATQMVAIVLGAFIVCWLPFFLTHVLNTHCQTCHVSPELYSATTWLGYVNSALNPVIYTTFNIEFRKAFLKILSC
Give just the numeric value; nM need not be written.

Query Ki for O=C(NC/C=C\CN1CCN(c2csc3cc(C(F)(F)F)ccc23)CC1)C1CCCCC1 [compound 826339]
24

Query Ki for O=C(NCCCCN1CCN(c2c(Cl)sc3cc(F)ccc23)CC1)c1sc2ccccc2c1Cl [compound 815057]
12.3

Query Ki for CC(=O)Nc1ccc(C(=O)N[C@H](CO)CCCN2CCN(c3csc4cc(C(F)(F)F)ccc34)CC2)cc1 [compound 815691]
241

Query Ki for O=C(NCCCCCCN1CCN(c2csc3cc(C(F)(F)F)ccc23)CC1)c1ccc2[nH]ccc2c1 [compound 816316]
2.7

Query Ki for O=C(NCCCCN1CCN(c2csc3cc(C(F)(F)F)ccc23)CC1)C1CCCC1 [compound 815559]
13.5

Query Ki for O=C(N[C@@H](CO)CCCN1CCN(c2csc3cc(C(F)(F)F)ccc23)CC1)c1ccc(-c2ccccc2)cc1 [compound 815670]
192

Query Ki for O=C(NCCCCN1CCN(c2c(Cl)sc3cc(C(F)(F)F)ccc23)CC1)C1CCCC1 [compound 815579]
104

Query Ki for CCn1cc(C(=O)N[C@@H](CO)CCCN2CCN(c3csc4cc(C(F)(F)F)ccc34)CC2)c(=O)c2ccc(C)nc21 [compound 815680]
197
